test: Human HepG2 cell viability assay in 384 well format; type: toxicity, cell-based; set-up: dose 125 nL, time 70.5 hour; concentration not given beside the values; details: HepG2 cells, read-out: Inhibition
Binary call on cytotoxicity at 70.5 h: T from -10% upward, F beneath that.

compound	assigned-category
CNC(=O)c1cccc(NC(=O)NCc2ccc(SC)cc2)c1C	T
CS(=O)(=O)N1CC[C@H]2OCC[C@@]2(C(=O)NCC2CC2)C1	T
CC(C)CCN1CCN(CC(=O)Nc2ccc3nsnc3c2)CC1	F
O=C(C1CCS(=O)(=O)C1)N1CCC(=Cc2cccc(F)c2)CC1 (stereo unspecified)	T
O=C(CO)N1CCN(S(=O)(=O)CCCF)CC1	T
OC1CCN(c2ccnc(NCCc3ccccc3Cl)n2)CC1	F
Cc1ccc(CN2CCn3cc(CNC(=O)c4cnn(C)c4)nc3C2)s1	F
Cc1cc(C)cc(CN2CCC3(CC2)CC(Nc2ncccn2)CO3)c1 (stereo unspecified)	F
COc1ccccc1CN1C(=O)O[C@@H]2CN(S(=O)(=O)N(C)C)C[C@@H]21	T
CC(C)(C)c1cn2nc(N3CCOC(Cn4cncn4)C3)sc2n1 (stereo unspecified)	F
COc1ccc(CCNC(=O)NC2CC(=O)N(c3ccccc3)C2)cc1 (stereo unspecified)	T

----------
assay: Human HepG2 cell viability assay in 384 well format; type: toxicity, cell-based; parameters: dose 125 nL, time 70.5 hour; concentration not given beside the values; settings: HepG2 cells, read-out: Inhibition

molecule	unit-string	cytotoxicity at 70.5 h
Cc1cc(N2CCOCC(Cc3ccc4[nH]ccc4c3)C2)ncn1 (stereo not drawn)	%	-9.7
CCn1cnnc1CNc1nc(C)nc2scc(CC(C)C)c12	%	-15.9
O=C(NCCNc1cnccn1)N1CC=C(c2ccc(O)cc2)CC1	%	2.47
CCn1cc(SCC(=O)N2CCCC(O)(CO)C2)c2ccccc21 (stereo not drawn)	%	-8.91
Cn1cccc1C(=O)NCc1cn2c(n1)CN(Cc1ccccn1)CC2	%	-13.2
O=C(O)C1(n2ccc(-c3ccco3)n2)CCN(Cc2ccccn2)CC1	%	-4.75
Cc1nc2c(c(=O)n1C)CN(C(=O)C1CCCN(C(N)=O)C1)C2 (stereo not drawn)	%	-4.13
Oc1nc(C2CC2)nc2c1nnn2C1CCN(Cc2ccoc2)CC1	%	-6.55
CC(C)N1CCc2ncn(C(C)C)c2C1C(=O)N1CCN(C)CC1 (stereo not drawn)	%	6.34
OCCN1CCC(F)(F)C2(CCN(c3cccnc3)C2)C1 (stereo not drawn)	%	-6.87
Cc1ccc2c(cnn2CCC(=O)NCc2csc(C3CC3)n2)c1	%	22.8
Cc1cnc(NC(=O)N2CCOCC2)s1	%	-2.62
Cc1csc(CCNC(=O)N2CCC(n3cccc3)CC2)n1	%	-7.68
N#Cc1cccnc1N1CCN(S(=O)(=O)NCc2ccccc2)CC1	%	-18.9
CC(=O)N1CCc2nc(-c3ccccc3)nc(NC(C)C)c2CC1	%	-13.5
Cc1nc2c(c(C)c1CC(=O)Nc1ccc(Cl)cc1)c(=O)[nH]n2C	%	-3.48
CC(C)c1nccc(CN(C)Cc2cnn(-c3ccccc3)c2)n1	%	26.7
CCc1nc(C)c([C@H]2CN(C)C[C@@H]2C(=O)NCCc2cnccn2)[nH]1	%	-5.77
CN(Cc1nnc(C2CC2)n1C)S(=O)(=O)c1ccccc1C#N	%	-15.5
CNc1cccc(C2CN(C(=O)c3c[nH]cn3)CCO2)n1 (stereo not drawn)	%	5.85
CCC(O)(CNCc1ncc[nH]1)c1ccc(Br)cc1 (stereo not drawn)	%	-1.16
CCc1cnc(N2C[C@H]3C[C@H](C(=O)N4CCOCC4)[C@@H](C2)O3)nc1	%	-6.74
Cc1nc2ccccn2c1CN1C[C@@H](CN(C)C)[C@@H](CO)C1	%	-6.27

Source of measurements: ChEMBL document CHEMBL3507680
